# TEST PROTOCOL: physchem
# SETTINGS: 70/30 ch3oh/h2o, Solubility, Oxamyl alone in solvent, alone; -6° C.

{"QUERY SMILES": "CNC(=O)ON=C(SC)C(=O)N(C)C", "SCALE UNIT": "mg/mL", "solubility": 422}

---

# TEST PROTOCOL: physchem
# SETTINGS: 70/30 ch3oh/h2o, Solubility, both actives in solvent: Methomyl, with oxamyl, 2:1 wt.; 70/30 CH3OH/H2O; -6° C.

{"QUERY SMILES": "CNC(=O)ON=C(C)SC", "SCALE UNIT": "mg/mL", "solubility": 342}
